Reference for the values: patent US20190077863A1

Biological target: T1, Human VE-PTP (HPTP-β) containing first eight FN3 repeats with C-terminal His6 tag (Human ½ VE-PTP ECD) (human, UniProt P23467 23-820)
T1 construct: Produced in HEK293 cells and purified by the His tag; it was not cut off; also called Human Beta ½ ECD
T1 sequence: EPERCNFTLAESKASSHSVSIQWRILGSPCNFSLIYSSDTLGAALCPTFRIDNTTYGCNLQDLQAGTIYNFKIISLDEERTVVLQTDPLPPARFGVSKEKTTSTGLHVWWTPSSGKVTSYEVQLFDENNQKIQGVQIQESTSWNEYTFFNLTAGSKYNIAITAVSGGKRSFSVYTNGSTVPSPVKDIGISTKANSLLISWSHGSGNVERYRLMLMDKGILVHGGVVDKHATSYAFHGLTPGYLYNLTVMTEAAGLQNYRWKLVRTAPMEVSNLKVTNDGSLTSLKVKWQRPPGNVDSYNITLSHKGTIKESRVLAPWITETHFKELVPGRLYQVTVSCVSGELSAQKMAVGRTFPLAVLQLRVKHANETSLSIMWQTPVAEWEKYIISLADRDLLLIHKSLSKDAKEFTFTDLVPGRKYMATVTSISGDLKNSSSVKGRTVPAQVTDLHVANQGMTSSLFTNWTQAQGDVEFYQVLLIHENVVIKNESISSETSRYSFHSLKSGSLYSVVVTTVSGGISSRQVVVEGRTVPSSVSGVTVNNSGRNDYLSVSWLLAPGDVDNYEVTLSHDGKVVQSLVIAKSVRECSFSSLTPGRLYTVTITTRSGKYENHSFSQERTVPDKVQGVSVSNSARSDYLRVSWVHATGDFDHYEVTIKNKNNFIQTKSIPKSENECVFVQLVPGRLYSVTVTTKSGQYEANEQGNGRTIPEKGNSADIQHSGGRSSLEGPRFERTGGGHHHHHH
Assay: SPR (Biacore 3000), antibody captured on anti-human IgG, antigen as analyte 100 nM (single concentration)
Reported Ka values are given for each entry in this list.

Given humanized R15E6 variant HC2LC4 (antibody, human IgG4 S228P, kappa, V domains shown, Human IgG4 (S228P) / kappa, expressed in CHO cells; Signal peptides left out by range; also called VH2-VL4) VH: EVQLVESGGGLVQPGGSLRLSCAASGFTFNANAMNWVRQAPGKGLEWVGRIRTKSNNYATYYAGSVKDRFTISRDDSKNSLYLQMNSLKTEDTAVYYCVRDYYGSSAWITYWGQGTLVTVSS VL: DIVMTQSPDSLAVSLGERATINCKASQHVGTAVAWYQQKPEQPPKLLIYWASTRHTGVPDRFSGSGSGTDFTLTISSLQAEDVAVYYCQQYSSYPFTFGGGTKVEIKR , state its recorded Ka. 7.72e+07 M⁻¹

Given humanized R15E6 variant HC2LC3 (antibody, human IgG4 S228P, kappa, V domains shown, Human IgG4 (S228P) / kappa, expressed in CHO cells; Signal peptides left out by range; also called VH2-VL3) VH: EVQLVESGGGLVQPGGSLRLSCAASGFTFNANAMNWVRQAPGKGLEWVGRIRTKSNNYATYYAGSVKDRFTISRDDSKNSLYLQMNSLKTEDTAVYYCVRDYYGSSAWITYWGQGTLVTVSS VL: DIQMTQSPFSLSASVGDRVTITCKASQHVGTAVAWYQQKPGKAPKLLIYWASTRHTGVPSRFSGSGSGTDFTLTISSLQPEDFATYFCQQYSSYPFTFGGGTKLEIKR , state its recorded Ka. 3.36e+08 M⁻¹

Given humanized R15E6 variant HC2LC2 (antibody, human IgG4 S228P, kappa, V domains shown, Human IgG4 (S228P) / kappa, expressed in CHO cells; Signal peptides left out by range; also called VH2-VL2) VH: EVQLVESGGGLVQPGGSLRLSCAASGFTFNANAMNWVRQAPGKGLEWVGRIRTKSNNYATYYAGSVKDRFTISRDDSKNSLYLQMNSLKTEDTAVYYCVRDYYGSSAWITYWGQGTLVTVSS VL: DIVMTQSPDSLAVSLGERATINCKASQHVGTAVAWYQQKPGQPPKLLIYWASTRHTGVPDRFSGSGSGTDFTLTISSLQAEDVAVYYCQQYSSYPFTFGQGTKLEIKR , state its recorded Ka. 2.85e+08 M⁻¹

***
Given humanized R15E6 variant HC2LC1 (antibody, human IgG4 S228P, kappa, V domains shown, Human IgG4 (S228P) / kappa, expressed in CHO cells; Signal peptides left out by range; also called VH2-VL1) VH: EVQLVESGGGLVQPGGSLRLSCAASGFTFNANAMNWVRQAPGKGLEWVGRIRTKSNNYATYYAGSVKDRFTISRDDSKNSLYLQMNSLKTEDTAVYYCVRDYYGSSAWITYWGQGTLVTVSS VL: DVVMTQSPSFLSASVGDRVTITCKASQHVGTAVAWYQQRPGKAPKLLIYWASTRHTGVPSRFSGSGSGTEFTLTISSLQPEDFATYFCQQYSSYPFTFGGGTKLEIKR , state its recorded Ka. 7.24e+07 M⁻¹
